assay: Solubility of linker-payloads and quenched linker-payloads; format: physicochemical; conditions: water; quenched linker-payloads, Table 6a; read-out: Solubility
TEST READOUT: Solubility

Look at this compound and give its reported Solubility. CC(C)[C@H](NC(=O)CCOCCOCCOCCOCCNC(=O)CCC(=O)N1Cc2ccccc2-c2c(nnn2CCOCCOCCOCCOCCC(=O)NCCS(=O)(=O)O)-c2ccccc21)C(=O)N[C@@H](CCCNC(N)=O)C(=O)Nc1ccc(COC(=O)NCC(=O)NCOCC(=O)[C@@]2(O)[C@H](C)C[C@H]3[C@@H]4CCC5=CC(=O)C=C[C@]5(C)[C@@]4(F)[C@@H](O)C[C@@]32C)cc1 > 1000 µg/mL
